Origin of the recorded values: PubChem BioAssay (NCI)

- Test system: A498 renal
- Assay remarks: NCI-60 one-dose screen, 48 h (100 = growth as untreated, 0 = no growth, -100 = all killed)
- Condition notes: 10 µM unless noted
This is part of a sample that, as a whole, favours compounds with a hit. Of some 83,000 tested, about 20% had one in any assay.
Parameter: growth. Scope: all listed entries.

Entry smiles: Nc1ccc(SSc2ccc(N)cc2)cc1
System name: A498 renal
growth (%): 103

Entry smiles: COc1ccc(N=N/N=c2\sc3cc(OC)ccc3n2C)cc1
System name: A498 renal
growth (%): 97

Entry smiles: CCOC(=O)/C(=C\c1ccc(-c2ccccc2)cc1)C(C)=O
System name: A498 renal
growth (%): 92.2

Entry smiles: O=C1c2ccccc2C(=O)c2sc(Nc3cccc(Cl)c3)nc21
System name: A498 renal
growth (%): 79.3

Entry smiles: Cc1ccc(C(=Nc2ccccc2)N=P(c2ccccc2)(c2ccccc2)c2ccccc2)cc1
System name: A498 renal
growth (%): -56.7

Entry smiles: C/C=C1\SC(=S)NC1=O
System name: A498 renal
growth (%): 108
